Each item that follows carries a reported remaining activity at 100 µM.
test target: MurC (Escherichia coli, UniProt P17952)
Sequence (P17952 whole entry): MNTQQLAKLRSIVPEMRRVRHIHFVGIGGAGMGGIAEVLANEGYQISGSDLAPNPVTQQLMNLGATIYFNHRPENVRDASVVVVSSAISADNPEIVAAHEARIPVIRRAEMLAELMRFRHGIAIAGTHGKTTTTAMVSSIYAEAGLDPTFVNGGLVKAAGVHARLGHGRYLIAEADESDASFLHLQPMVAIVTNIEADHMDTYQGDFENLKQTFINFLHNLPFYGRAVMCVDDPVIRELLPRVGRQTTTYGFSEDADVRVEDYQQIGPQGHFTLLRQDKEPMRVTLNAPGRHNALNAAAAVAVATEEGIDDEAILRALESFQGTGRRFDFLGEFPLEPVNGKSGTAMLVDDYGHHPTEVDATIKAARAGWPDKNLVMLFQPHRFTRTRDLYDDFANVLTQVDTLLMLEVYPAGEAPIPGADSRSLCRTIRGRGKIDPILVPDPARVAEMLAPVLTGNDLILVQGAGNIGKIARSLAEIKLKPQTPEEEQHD
protocol text: Inhibition of MurC, colorimetric malachite green method
Assay type: biochemical, bacterial
assay conditions: 0.25 h; residual activity at 100 µM; Table 2; read-out: MurC RA (%)
outcome measure: remaining activity at 100 µM

- CCCCc1nc2ccn(Cc3ccsc3)c(=O)c2n1Cc1ccc(-c2ccccc2-c2nnn[nH]2)cc1: 26%
- CCCCc1nc2ccn(CC(=O)C(C)(C)C)c(=O)c2n1Cc1ccc(-c2ccccc2-c2nnn[nH]2)cc1: 75%
- CCCCc1nc2ccn(Cc3ccccc3Cl)c(=O)c2n1Cc1ccc(-c2ccccc2-c2nnn[nH]2)cc1: 20%
- CCCCc1nc2ccn(Cc3ccccc3)c(=O)c2n1Cc1ccc(-c2ccccc2-c2nnn[nH]2)cc1: 40%
- CCCCc1nc2ccn(CC(=O)N3CCCCC3)c(=O)c2n1Cc1ccc(-c2ccccc2S(=O)(=O)NC(=O)CCc2ccccc2)cc1F: 53%

###

test target: hMAO-B (Homo sapiens)
Construct: purchased Sigma Aldrich; host or cells: BTI-TN-5B1-4 baculovirus-infected insect cells
Sequence (P27338 whole entry): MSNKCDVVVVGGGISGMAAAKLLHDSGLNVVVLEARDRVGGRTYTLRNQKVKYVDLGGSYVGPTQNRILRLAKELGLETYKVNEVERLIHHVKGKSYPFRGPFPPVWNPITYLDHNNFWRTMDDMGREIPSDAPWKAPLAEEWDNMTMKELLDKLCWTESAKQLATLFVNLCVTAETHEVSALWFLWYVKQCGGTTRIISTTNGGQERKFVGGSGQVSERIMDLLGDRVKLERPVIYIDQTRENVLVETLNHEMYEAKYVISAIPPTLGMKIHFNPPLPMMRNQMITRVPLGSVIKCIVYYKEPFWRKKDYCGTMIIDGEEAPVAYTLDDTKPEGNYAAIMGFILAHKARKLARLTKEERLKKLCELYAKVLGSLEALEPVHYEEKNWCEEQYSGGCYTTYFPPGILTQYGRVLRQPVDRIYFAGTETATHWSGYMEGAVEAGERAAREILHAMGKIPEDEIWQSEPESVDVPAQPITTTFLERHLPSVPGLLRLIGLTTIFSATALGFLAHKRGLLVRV
protocol text: biochemical
assay conditions: residual activity at 10 µM; Mini Library screen, Table S1; read-out: hMAO-B (RA [%])
outcome measure: remaining activity at 10 µM (%)

• Oc1ccc2[nH]cc(CCCCN3CC=C(c4ccccc4)CC3)c2c1 [MS-ML11] = 45
• CCCCCCN(Cc1ccc(C#Cc2ccc(CCCC)cc2)cc1)c1ccc(F)c(C(=O)O)c1 [MS-ML26] = 92
• CCCCCCN(Cc1ccc(C#Cc2ccc(CCCC)cc2)cc1)c1ccc(O)c(C(=O)O)c1 [MS-ML24] = 64
• CCCCc1nc2ccn(CC(=O)N3CCCCC3)c(=O)c2n1Cc1ccc(-c2ccccc2S(=O)(=O)NC(=O)OCc2ccccc2)cc1F [MS-ML05] = 93

Ref: paper PMC9320114
